Details: human gut metagenome, 24 h, 2 µM; further: call rule not given here
measuredProperty: Bacterial Biotransformation

Take a look at these entries with their results.
COc1ccccc1OCCNCC(O)COc1cccc2[nH]c3ccccc3c12 (stereo not drawn)	Compound NOT metabolized
COc1ccc(CN2CCNCC2)c(OC)c1OC.Cl.Cl [TRIMETAZIDINE DIHYDROCHLORIDE]	Compound NOT metabolized
CCc1oc2ccccc2c1C(=O)c1cc(Br)c(O)c(Br)c1	Compound NOT metabolized
Nc1nc(NC2CC2)c2ncn([C@H]3C=C[C@@H](CO)C3)c2n1.Nc1nc(NC2CC2)c2ncn([C@H]3C=C[C@@H](CO)C3)c2n1.O=S(=O)(O)O [ABACAVIR SULFATE]	Compound NOT metabolized
C#C[C@]1(OC(C)=O)CC[C@H]2[C@@H]3CCC4=CC(=O)CC[C@@H]4[C@H]3CC[C@@]21C [NORETHINDRONE ACETATE]	Compound NOT metabolized
CN[C@H]1CC[C@@H](c2ccc(Cl)c(Cl)c2)c2ccccc21	Compound NOT metabolized

Next molecule, please.
In plain terms, CN1CCN2c3ccccc3Cc3ccccc3C2C1 (stereo not drawn) has a documented Bacterial Biotransformation of Compound NOT metabolized

---

Assay: The drug is tested on Z-011 corresponding to mouse gut metagenome with ENA study accession number: PRJEB37062 and ENA sample accession number: ERS12561811 for biotransformation under anaerobic condition. The drug concentrations were measured over 9 timepoints collected between 0 and 24 hours of incubation by liquid-chromatography-coupled mass spectrometry (LC–MS)
Conditions: 2 µM
measuredProperty: Bacterial Biotransformation

COC(=O)[C@H](c1ccccc1Cl)N1CCc2sccc2C1.O=S(=O)(O)O [CLOPIDOGREL BISULFATE]	Compound metabolized
COc1cc2nc(N3CCN(C(=O)C4CCCO4)CC3)nc(N)c2cc1OC (stereo not drawn)	Compound metabolized
CC(C)C[C@H]1C(=O)N2CCC[C@H]2[C@]2(O)O[C@](NC(=O)[C@@H]3C=C4c5cccc6[nH]c(Br)c(c56)C[C@H]4N(C)C3)(C(C)C)C(=O)N12.CS(=O)(=O)O [BROMOCRIPTINE MESYLATE]	Compound metabolized

---

Assay: The drug is tested on Z-007 corresponding to rat gut metagenome with ENA study accession number: PRJEB37062 and ENA sample accession number: ERS12561807 for biotransformation under anaerobic condition. The drug concentrations were measured over 9 timepoints collected between 0 and 24 hours of incubation by liquid-chromatography-coupled mass spectrometry (LC–MS)
Conditions: 2 µM
measuredProperty: Bacterial Biotransformation

COc1cc2nc(N3CCN(C(=O)C4COc5ccccc5O4)CC3)nc(N)c2cc1OC.CS(=O)(=O)O (centres undefined) [DOXAZOSIN MESYLATE]	Compound NOT metabolized
COc1ccc([C@@H]2Sc3ccccc3N(CCN(C)C)C(=O)[C@@H]2OC(C)=O)cc1 [DILTIAZEM]	Compound NOT metabolized
COc1ccc2c(c1)c(CC(=O)O)c(C)n2C(=O)c1ccc(Cl)cc1 [INDOMETHACIN]	Compound NOT metabolized

---

Experiment: The drug is tested on WLS-240 corresponding to human gut metagenome with ENA study accession number: PRJEB37062 and ENA sample accession number: ERS12561773 for biotransformation under anaerobic condition. The drug concentrations were measured over 9 timepoints collected between 0 and 24 hours of incubation by liquid-chromatography-coupled mass spectrometry (LC–MS)
Conditions: 2 µM
measuredProperty: Bacterial Biotransformation

Example entries and their recorded answers appear below.
CCN1CCCC1CNC(=O)c1cc(S(=O)(=O)CC)c(N)cc1OC (configuration not stated) [AMISULPRIDE]	Compound metabolized
CC(C)(C)NCC(O)c1cc(Cl)c(N)c(Cl)c1 (configuration not stated) [CLENBUTEROL]	Compound NOT metabolized
CN(C)CCC=C1c2ccccc2COc2ccccc21 [DOXEPIN]	Compound metabolized
CC(C)NCC(O)COc1ccc(CC(N)=O)cc1 (configuration not stated) [ATENOLOL]	Compound NOT metabolized
COC(=O)[C@H](c1ccccc1Cl)N1CCc2sccc2C1.O=S(=O)(O)O [CLOPIDOGREL BISULFATE]	Compound metabolized
CC(=O)OCC(CCn1cnc2cnc(N)nc21)COC(C)=O [FAMCICLOVIR]	Compound metabolized
CC(=O)Oc1ccc(C(c2ccc(OC(C)=O)cc2)c2ccccn2)cc1 [BISACODYL]	Compound metabolized
CN(C)C(=O)Oc1cccc([N+](C)(C)C)c1.[Br-] [NEOSTIGMINE BROMIDE]	Compound NOT metabolized
CC#CCn1c(N2CCC[C@@H](N)C2)nc2c1c(=O)n(Cc1nc(C)c3ccccc3n1)c(=O)n2C [LINAGLIPTIN]	Compound NOT metabolized
CN1CCN2c3ccccc3Cc3ccccc3C2C1 (configuration not stated) [MIANSERIN]	Compound NOT metabolized

Take each entry in turn and give its Bacterial Biotransformation.
1. O=C1N=C([O-])NC1(c1ccccc1)c1ccccc1.[Na+] [PHENYTOIN SODIUM]
2. CCCCC(=O)O[C@]1(C(=O)CO)[C@@H](C)C[C@H]2[C@@H]3CCC4=CC(=O)C=C[C@]4(C)[C@@]3(F)[C@@H](O)C[C@@]21C [BETAMETHASONE VALERATE]
3. CC(C)(C)NC[C@H](O)COc1nsnc1N1CCOCC1.O=C(O)/C=C\C(=O)O [TIMOLOL MALEATE]
4. CN1CCC(=C2c3ccccc3CC(=O)c3sccc32)CC1.O=C(O)/C=C/C(=O)O [KETOTIFEN FUMARATE]
5. Nc1nc(NC2CC2)c2ncn([C@H]3C=C[C@@H](CO)C3)c2n1.Nc1nc(NC2CC2)c2ncn([C@H]3C=C[C@@H](CO)C3)c2n1.O=S(=O)(O)O [ABACAVIR SULFATE]
6. C[C@]12C=CC(=O)C=C1CC[C@@H]1[C@@H]2C(=O)C[C@@]2(C)[C@H]1CC[C@]2(O)C(=O)CO [PREDNISONE]

1: Compound metabolized; 2: Compound metabolized; 3: Compound NOT metabolized; 4: Compound metabolized; 5: Compound metabolized; 6: Compound metabolized

The value of Bacterial Biotransformation measured for the compound COc1ccc([C@@H]2Sc3ccccc3N(CCN(C)C)C(=O)[C@@H]2OC(C)=O)cc1 [DILTIAZEM] turned out to be Compound metabolized
